Source listed as ChEMBL document CHEMBL5649170.

- Target entity: cAMP-dependent protein kinase catalytic subunit alpha (Homo sapiens, UniProt P17612)
- Experimental protocol: Inhibition of PRKACA (unknown origin)
pIC50: −log10 of the molar value.
Measured parameter: pIC50

(Q) Request the reported pIC50 associated with COc1ncc(F)cc1CNc1ccc(Cc2c[nH]c3ncc(C)cc23)c(F)n1 [PLX-5622]
(A) < 6.00

* * *

- Experimental protocol: Drug concentration in mouse brain at 300 ppm administered as rodent chow for 14 days
- Format: ADME, tissue-based
- Condition summary: route po, time 14 day, read-out: Ct
Measured parameter: concentration at 336 h (ng/mL)
Give your result in ng/mL as a bare value.

(Q) Request the reported concentration at 336 h associated with COc1ncc(F)cc1CNc1ccc(Cc2c[nH]c3ncc(C)cc23)c(F)n1
(A) 963

* * *

- Target entity: MAP/microtubule affinity-regulating kinase 4 (Homo sapiens)
- Sequence (Q96L34 whole entry): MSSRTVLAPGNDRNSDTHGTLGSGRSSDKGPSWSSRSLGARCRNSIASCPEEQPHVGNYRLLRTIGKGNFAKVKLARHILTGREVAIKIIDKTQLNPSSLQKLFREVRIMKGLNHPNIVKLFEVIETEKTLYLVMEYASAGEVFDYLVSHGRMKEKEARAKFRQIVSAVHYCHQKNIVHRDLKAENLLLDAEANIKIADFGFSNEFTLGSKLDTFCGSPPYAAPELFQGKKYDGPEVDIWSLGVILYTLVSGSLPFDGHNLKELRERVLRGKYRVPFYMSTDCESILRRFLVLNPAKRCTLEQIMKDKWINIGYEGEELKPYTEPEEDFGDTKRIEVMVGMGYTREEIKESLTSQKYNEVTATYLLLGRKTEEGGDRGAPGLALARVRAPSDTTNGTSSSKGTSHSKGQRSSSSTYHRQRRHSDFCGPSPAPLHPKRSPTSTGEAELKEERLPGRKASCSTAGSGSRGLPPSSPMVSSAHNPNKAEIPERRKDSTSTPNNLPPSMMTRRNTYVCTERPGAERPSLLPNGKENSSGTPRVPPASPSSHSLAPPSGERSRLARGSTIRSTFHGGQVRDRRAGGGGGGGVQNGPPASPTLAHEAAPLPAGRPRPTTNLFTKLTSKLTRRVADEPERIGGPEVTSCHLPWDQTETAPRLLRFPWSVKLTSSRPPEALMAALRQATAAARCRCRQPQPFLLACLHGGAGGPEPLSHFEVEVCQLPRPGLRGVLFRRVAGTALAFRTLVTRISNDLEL
pIC50: −log10 of the molar value.
Measured parameter: pIC50

(Q) Request the reported pIC50 associated with COc1ncc(F)cc1CNc1ccc(Cc2c[nH]c3ncc(C)cc23)c(F)n1
(A) < 6.00

* * *

- Experimental protocol: AUC (0 to 24 hrs) in 5XFAD mouse brain at 1200 ppm administered as rodent chow for 180 days
- Format: ADME, tissue-based
- Condition summary: route po, time 180 day
Measured parameter: AUC at 4320 h (ng·h/mL)
Give your result in ng·h/mL as a bare value.

(Q) Request the reported AUC at 4320 h associated with COc1ncc(F)cc1CNc1ccc(Cc2c[nH]c3ncc(C)cc23)c(F)n1
(A) 57300

* * *

- Target entity: RAC-alpha serine/threonine-protein kinase (Homo sapiens)
- Sequence (P31749 whole entry): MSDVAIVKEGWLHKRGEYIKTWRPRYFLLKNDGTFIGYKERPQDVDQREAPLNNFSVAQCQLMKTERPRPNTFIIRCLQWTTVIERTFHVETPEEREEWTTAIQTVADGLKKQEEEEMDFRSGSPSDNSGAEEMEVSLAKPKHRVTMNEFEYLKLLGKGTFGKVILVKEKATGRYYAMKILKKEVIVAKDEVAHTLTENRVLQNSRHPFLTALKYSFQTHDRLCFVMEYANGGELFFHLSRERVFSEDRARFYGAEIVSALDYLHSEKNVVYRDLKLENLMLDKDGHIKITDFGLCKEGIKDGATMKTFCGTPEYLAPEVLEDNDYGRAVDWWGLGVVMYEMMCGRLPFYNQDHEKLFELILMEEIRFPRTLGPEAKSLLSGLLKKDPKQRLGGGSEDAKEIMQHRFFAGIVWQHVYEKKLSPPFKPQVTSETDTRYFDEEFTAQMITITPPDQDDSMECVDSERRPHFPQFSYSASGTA
Measured parameter: IC50

(Q) Find IC50 (RAC-alpha serine/threonine-protein kinase (Homo sapiens)) for the entry COc1ncc(F)cc1CNc1ccc(Cc2c[nH]c3ncc(C)cc23)c(F)n1 [PLX-5622]
(A) > 1000 nM

* * *

- Target entity: UniProt:P36888
- Sequence (P36888 whole entry): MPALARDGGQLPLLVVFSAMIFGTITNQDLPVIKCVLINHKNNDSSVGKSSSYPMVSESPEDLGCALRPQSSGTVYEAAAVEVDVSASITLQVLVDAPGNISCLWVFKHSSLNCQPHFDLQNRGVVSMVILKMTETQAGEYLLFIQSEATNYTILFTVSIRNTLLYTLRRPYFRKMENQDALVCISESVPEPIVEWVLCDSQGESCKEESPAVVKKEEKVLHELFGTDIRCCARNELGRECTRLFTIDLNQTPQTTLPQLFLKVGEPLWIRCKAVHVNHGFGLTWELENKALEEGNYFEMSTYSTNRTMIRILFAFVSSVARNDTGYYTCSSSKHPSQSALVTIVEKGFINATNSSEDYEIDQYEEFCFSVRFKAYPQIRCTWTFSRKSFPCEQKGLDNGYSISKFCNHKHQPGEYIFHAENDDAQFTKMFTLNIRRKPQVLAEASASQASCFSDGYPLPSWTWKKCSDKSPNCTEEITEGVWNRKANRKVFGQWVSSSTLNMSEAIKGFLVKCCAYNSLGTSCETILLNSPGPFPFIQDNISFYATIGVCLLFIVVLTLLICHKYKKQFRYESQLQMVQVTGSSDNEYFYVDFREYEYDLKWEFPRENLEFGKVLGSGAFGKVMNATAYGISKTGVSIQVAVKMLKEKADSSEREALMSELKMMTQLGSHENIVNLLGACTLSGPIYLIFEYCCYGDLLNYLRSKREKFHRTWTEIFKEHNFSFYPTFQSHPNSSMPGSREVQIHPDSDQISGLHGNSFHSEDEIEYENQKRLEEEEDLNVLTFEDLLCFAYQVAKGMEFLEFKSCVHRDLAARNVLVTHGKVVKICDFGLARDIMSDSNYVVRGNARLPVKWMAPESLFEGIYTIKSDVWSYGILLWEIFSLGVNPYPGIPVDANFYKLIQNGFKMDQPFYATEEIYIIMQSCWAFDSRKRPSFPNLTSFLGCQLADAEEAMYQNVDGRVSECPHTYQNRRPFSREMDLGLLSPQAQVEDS
- Experimental protocol: Inhibition of FLT3 (unknown origin)
Measured parameter: IC50 (nM)
Give your result in nM as a bare value.

(Q) Request the reported IC50 associated with COc1ncc(F)cc1CNc1ccc(Cc2c[nH]c3ncc(C)cc23)c(F)n1
(A) 390

* * *

- Target entity: cAMP-dependent protein kinase catalytic subunit PRKX (Homo sapiens, UniProt P51817)
- Sequence (P51817 whole entry): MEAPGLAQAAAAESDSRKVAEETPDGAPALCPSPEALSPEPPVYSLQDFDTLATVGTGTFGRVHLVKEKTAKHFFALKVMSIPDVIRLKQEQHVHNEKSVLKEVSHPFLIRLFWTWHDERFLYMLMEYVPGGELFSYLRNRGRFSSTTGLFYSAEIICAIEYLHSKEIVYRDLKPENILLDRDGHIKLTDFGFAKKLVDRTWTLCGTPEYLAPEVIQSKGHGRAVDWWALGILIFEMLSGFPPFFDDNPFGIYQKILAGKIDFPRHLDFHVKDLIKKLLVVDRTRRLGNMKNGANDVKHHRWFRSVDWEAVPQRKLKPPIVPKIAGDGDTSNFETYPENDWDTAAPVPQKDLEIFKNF
- Experimental protocol: Inhibition of PRKX (unknown origin)
pIC50: −log10 of the molar value.
Measured parameter: pIC50

(Q) Request the reported pIC50 associated with COc1ncc(F)cc1CNc1ccc(Cc2c[nH]c3ncc(C)cc23)c(F)n1
(A) < 6.00

* * *

- Target entity: Dual specificity tyrosine-phosphorylation-regulated kinase 1A (Homo sapiens)
Measured parameter: IC50

(Q) Find IC50 (Dual specificity tyrosine-phosphorylation-regulated kinase 1A (Homo sapiens)) for the entry COc1ncc(F)cc1CNc1ccc(Cc2c[nH]c3ncc(C)cc23)c(F)n1 [PLX-5622]
(A) > 1000 nM

* * *

- Experimental protocol: Clearance in mouse at 1.92 mg/kg, iv administered as single dose
- Assay type: ADME, organism-based
- Condition summary: in vivo
Measured parameter: clearance (mL/min/kg)
Give your result in mL/min/kg as a bare value.

(Q) Request the reported clearance associated with COc1ncc(F)cc1CNc1ccc(Cc2c[nH]c3ncc(C)cc23)c(F)n1
(A) 2.1

* * *

- Experimental protocol: Oral bioavailability in female rat at 45 mg/kg administered as single via gavage
- Format: ADME, organism-based
- Condition summary: in vivo
Measured parameter: bioavailability (%)
Give your result in % as a bare value.

(Q) Request the reported bioavailability associated with COc1ncc(F)cc1CNc1ccc(Cc2c[nH]c3ncc(C)cc23)c(F)n1
(A) 89

* * *

- Target entity: Glycogen synthase kinase-3 beta (Homo sapiens, UniProt P49841)
- Sequence (P49841 whole entry): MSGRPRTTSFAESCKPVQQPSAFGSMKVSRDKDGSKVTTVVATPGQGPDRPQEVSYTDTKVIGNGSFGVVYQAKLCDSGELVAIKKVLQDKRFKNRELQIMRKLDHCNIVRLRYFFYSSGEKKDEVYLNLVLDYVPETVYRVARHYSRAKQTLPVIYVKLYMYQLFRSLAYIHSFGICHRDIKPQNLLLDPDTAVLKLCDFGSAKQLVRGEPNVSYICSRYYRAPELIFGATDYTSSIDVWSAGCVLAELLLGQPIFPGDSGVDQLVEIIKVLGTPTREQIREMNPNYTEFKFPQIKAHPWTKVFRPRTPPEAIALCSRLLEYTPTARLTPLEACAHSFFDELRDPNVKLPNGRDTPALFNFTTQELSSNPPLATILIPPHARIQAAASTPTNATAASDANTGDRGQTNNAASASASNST
Measured parameter: IC50

(Q) Request the reported IC50 associated with COc1ncc(F)cc1CNc1ccc(Cc2c[nH]c3ncc(C)cc23)c(F)n1
(A) > 1000 nM

* * *

- Target entity: Calcium/calmodulin-dependent protein kinase type II subunit alpha (Homo sapiens)
- Sequence (Q9UQM7 whole entry): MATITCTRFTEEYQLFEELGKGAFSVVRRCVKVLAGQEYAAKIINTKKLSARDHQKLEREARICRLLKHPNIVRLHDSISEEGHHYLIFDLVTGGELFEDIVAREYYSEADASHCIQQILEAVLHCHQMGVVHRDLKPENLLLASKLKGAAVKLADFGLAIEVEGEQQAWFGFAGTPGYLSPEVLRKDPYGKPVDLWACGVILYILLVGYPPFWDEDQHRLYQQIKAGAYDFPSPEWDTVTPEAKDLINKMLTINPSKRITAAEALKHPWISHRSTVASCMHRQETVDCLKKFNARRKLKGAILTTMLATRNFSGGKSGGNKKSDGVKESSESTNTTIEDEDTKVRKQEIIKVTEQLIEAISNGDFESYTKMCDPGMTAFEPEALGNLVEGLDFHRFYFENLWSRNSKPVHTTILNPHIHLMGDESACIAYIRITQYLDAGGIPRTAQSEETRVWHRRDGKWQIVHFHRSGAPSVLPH
- Experimental protocol: Inhibition of CAMK2A (unknown origin)
Measured parameter: IC50

(Q) Request the reported IC50 associated with COc1ncc(F)cc1CNc1ccc(Cc2c[nH]c3ncc(C)cc23)c(F)n1
(A) > 1000 nM

* * *

- Experimental protocol: AUC (0 to infinity) in dog at 45 mg/kg, po administered as single dose via gavage
- Assay type: ADME, organism-based, Canis lupus familiaris
- Condition summary: in vivo
Measured parameter: AUC(0-inf) (ng·h/mL)
Give your result in ng·h/mL as a bare value.

(Q) Request the reported AUC(0-inf) associated with COc1ncc(F)cc1CNc1ccc(Cc2c[nH]c3ncc(C)cc23)c(F)n1 [PLX-5622]
(A) 96500

* * *

- Target entity: UniProtKB P00519
- Sequence (P00519 whole entry): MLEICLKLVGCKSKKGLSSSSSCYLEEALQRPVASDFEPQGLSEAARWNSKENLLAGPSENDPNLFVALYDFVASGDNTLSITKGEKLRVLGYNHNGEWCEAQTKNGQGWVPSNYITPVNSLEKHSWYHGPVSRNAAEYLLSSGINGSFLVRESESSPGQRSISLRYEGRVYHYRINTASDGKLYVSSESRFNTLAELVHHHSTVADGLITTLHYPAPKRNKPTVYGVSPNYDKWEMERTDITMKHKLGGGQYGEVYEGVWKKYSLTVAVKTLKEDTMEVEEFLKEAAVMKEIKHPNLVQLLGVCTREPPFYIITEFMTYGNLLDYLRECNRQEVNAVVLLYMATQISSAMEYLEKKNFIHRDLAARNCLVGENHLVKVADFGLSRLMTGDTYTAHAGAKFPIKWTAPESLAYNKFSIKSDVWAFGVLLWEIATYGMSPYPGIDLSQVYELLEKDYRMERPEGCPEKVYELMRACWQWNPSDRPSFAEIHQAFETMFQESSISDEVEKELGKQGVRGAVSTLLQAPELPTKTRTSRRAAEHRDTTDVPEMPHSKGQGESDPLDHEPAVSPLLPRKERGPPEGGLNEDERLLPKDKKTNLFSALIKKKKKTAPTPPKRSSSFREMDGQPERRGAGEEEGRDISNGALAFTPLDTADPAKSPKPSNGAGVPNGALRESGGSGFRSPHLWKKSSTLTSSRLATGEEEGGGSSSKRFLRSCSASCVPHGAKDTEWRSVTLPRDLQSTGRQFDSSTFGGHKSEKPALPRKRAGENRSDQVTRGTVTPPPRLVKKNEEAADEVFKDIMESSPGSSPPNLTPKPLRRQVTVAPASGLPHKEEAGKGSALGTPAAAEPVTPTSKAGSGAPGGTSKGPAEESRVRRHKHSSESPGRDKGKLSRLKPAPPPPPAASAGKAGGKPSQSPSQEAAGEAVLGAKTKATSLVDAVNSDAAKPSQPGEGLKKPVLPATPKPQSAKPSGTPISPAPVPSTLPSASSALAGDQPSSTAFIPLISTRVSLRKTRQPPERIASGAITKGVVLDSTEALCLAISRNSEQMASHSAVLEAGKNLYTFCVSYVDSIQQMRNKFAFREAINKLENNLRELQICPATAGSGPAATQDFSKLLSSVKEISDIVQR
pIC50: −log10 of the molar value.
Measured parameter: pIC50

(Q) Find pIC50 (UniProtKB P00519) for the entry COc1ncc(F)cc1CNc1ccc(Cc2c[nH]c3ncc(C)cc23)c(F)n1
(A) < 6.00

* * *

- Target entity: UniProt:P05129
- Experimental protocol: Inhibition of PRKCG (unknown origin)
pIC50: −log10 of the molar value.
Measured parameter: pIC50

(Q) Request the reported pIC50 associated with COc1ncc(F)cc1CNc1ccc(Cc2c[nH]c3ncc(C)cc23)c(F)n1
(A) < 6.00
